System: PPARg:RXRa DBDmut IVT, anti-RXR (DBD mutation: RXRa K156A/R161A, NR concentration 270 nM, RXRa partner concentration 90 nM)
METHOD DESCRIPTION: PBM binding z-score (relative to random genomic background probes); higher = stronger binding; sequences stand for … in GC…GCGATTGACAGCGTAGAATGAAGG
If the reported PBM binding z-score equals or exceeds 4, assign criterion met. If not, assign criterion not met.

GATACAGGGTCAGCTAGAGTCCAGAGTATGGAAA
criterion not met

Assess whether reported PBM binding z-score for CCTATTAGTTGAGCATAAGGGCAACCGAAGCTCG sits at 4 or higher.
criterion not met

Assess whether reported PBM binding z-score for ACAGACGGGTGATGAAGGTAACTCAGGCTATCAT sits at 4 or higher.
criterion not met

Assess whether reported PBM binding z-score for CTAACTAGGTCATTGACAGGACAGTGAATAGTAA sits at 4 or higher.
criterion met

Assess whether reported PBM binding z-score for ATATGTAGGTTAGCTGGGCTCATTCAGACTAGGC sits at 4 or higher.
criterion met
